molecular target: Short transient receptor potential channel 4 (Mus musculus) (UniProt Q9QUQ5); assay: inhibitors of mouse TRPC4 channel, primary screen, Fluo4 calcium, HEK293 TRPC4beta/mu-opioid cells (AID 2247); conditions: DAMGO-evoked Fluo4 calcium flux, at 10 µM; stronger effect = lower value
Sequence (Q9QUQ5 whole entry, looked up): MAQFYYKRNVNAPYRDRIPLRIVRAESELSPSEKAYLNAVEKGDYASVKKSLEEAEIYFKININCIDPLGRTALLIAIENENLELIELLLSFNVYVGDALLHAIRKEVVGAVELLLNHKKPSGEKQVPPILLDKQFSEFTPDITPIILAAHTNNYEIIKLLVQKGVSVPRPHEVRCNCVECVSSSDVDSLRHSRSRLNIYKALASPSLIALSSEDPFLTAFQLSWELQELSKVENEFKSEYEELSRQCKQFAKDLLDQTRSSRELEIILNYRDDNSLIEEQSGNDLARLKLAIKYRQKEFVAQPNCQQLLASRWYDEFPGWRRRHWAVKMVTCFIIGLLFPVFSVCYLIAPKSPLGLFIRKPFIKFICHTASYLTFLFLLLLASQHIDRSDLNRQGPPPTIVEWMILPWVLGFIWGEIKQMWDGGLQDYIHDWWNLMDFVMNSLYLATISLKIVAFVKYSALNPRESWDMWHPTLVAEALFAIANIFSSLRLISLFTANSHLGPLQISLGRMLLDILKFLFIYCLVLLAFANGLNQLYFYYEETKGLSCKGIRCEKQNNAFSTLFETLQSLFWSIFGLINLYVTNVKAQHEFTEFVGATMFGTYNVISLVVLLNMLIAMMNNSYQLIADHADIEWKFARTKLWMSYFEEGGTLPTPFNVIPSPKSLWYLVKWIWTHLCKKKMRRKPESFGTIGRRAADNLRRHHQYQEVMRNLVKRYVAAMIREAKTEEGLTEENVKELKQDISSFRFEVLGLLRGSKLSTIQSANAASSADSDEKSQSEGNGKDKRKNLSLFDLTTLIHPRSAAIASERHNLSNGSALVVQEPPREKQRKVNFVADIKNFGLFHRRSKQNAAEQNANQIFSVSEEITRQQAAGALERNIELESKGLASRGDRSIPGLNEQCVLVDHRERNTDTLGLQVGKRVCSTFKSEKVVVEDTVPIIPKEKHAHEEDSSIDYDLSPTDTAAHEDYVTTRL
Hit rate of the full screen: of about 300,000 compounds, about 1,200 (0.4%) were called active. This is one part of a sample in which actives are shown more often than they occur.

[
  {
    "Compound": "O=C(O)c1ccccc1C(=O)Nc1ccccc1[N+](=O)[O-]",
    "B-score": "inactive"
  },
  {
    "Compound": "O=[N+]([O-])c1ccccc1Nc1ccc(O)cc1",
    "B-score": "-6 (active)"
  },
  {
    "Compound": "Nc1cc(N)nc(SCc2cccc(F)c2)n1",
    "B-score": "inactive"
  },
  {
    "Compound": "CCOC(=O)N1CCN(S(=O)(=O)N2CCCC(C(=O)NCCCN3CCC(C)CC3)C2)CC1 (stereo unspecified)",
    "B-score": "inactive"
  },
  {
    "Compound": "CC(C)(C)c1cc2cccnc2n1Cc1ccccc1",
    "B-score": "-7 (active)"
  },
  {
    "Compound": "CC(C)c1ccc(S(=O)(=O)N2CCN(C(=O)CN3C(=O)NC(C)(c4ccccc4)C3=O)CC2)cc1 (stereo unspecified)",
    "B-score": "inactive"
  },
  {
    "Compound": "Cc1c(CN2CCC(n3nccc3NC(=O)CCc3ccccc3)CC2)cnn1C",
    "B-score": "-7 (active)"
  },
  {
    "Compound": "O=C(O)C(F)(F)C(NCc1ccccc1)c1ccccc1 (stereo unspecified)",
    "B-score": "inactive"
  },
  {
    "Compound": "COc1cccc2cc(C(N)=O)/c(=N\\NC(=O)c3ccccc3)oc12",
    "B-score": "-6 (active)"
  },
  {
    "Compound": "CC1(C)OC(=O)C(=CNC(CO)C(=O)O)C(=O)O1 (stereo unspecified)",
    "B-score": "inactive"
  },
  {
    "Compound": "Oc1ccc(-c2nnc(Nc3ccccc3)c3ccccc23)cc1",
    "B-score": "inactive"
  },
  {
    "Compound": "COc1ccc(C(=O)N/N=c2\\oc3ccccc3cc2C(N)=O)cc1",
    "B-score": "inactive"
  },
  {
    "Compound": "CC1CC(C)CN(CCCNC(=O)c2csc3c2CCCCC3)C1 (stereo unspecified)",
    "B-score": "inactive"
  },
  {
    "Compound": "CC(=O)Nc1ccc(S(=O)(=O)Oc2ccc(Br)cc2C(=S)N2CCOCC2)cc1",
    "B-score": "inactive"
  },
  {
    "Compound": "CCOc1ccc(Cn2c(SCCCCC#N)nc3c2c(=O)n(C)c(=O)n3C)cc1OCC",
    "B-score": "-5 (active)"
  },
  {
    "Compound": "CC1CCCN(CCOCCOc2ccccc2-c2ccccc2)C1 (stereo unspecified)",
    "B-score": "-7 (active)"
  },
  {
    "Compound": "NC1=NC[C@@H](Cc2ccc(O)cc2)N1CC1CCCCC1",
    "B-score": "inactive"
  },
  {
    "Compound": "Cn1c(SCC(=O)N2CCCc3ccccc32)nc2ccccc2c1=O",
    "B-score": "inactive"
  },
  {
    "Compound": "CCn1cc(CN2CCC(n3nccc3NC(=O)CCCc3ccccc3)CC2)c(C)n1",
    "B-score": "inactive"
  },
  {
    "Compound": "CSc1ccc(/C=N\\NC(=O)CC(=O)NC(C)C)cc1",
    "B-score": "-8 (active)"
  },
  {
    "Compound": "Cc1cccc(Cn2c(SCCO)nc3c2c(=O)n(C)c(=O)n3C)c1",
    "B-score": "inactive"
  },
  {
    "Compound": "CC(C)(C)c1cc2cccnc2n1Cc1cccc(F)c1",
    "B-score": "-6 (active)"
  },
  {
    "Compound": "CCc1nn(CCCC(=O)Nc2ccc(C)c(C)c2)c(=O)c2cc3occc3n12",
    "B-score": "inactive"
  },
  {
    "Compound": "c1ccc(Nc2n[nH]nc2-c2ccccc2)cc1",
    "B-score": "-6 (active)"
  },
  {
    "Compound": "CCCSc1nc2c(c(=O)n(C)c(=O)n2C)n1Cc1ccc(C)cc1",
    "B-score": "inactive"
  },
  {
    "Compound": "CCC(C)OC(=O)C(C)Oc1ccc(-c2ccccc2)cc1 (stereo unspecified)",
    "B-score": "inactive"
  },
  {
    "Compound": "CC1CCN(CCCn2c(SCC(=O)NC3CCCC3)nc3ccccc3c2=O)CC1",
    "B-score": "inactive"
  },
  {
    "Compound": "O=C(CSc1nc2ccccc2c(=O)n1CCCO)N1CCc2ccccc21",
    "B-score": "-7 (active)"
  },
  {
    "Compound": "CCCCn1c(N)c(N(CCOC)C(=O)c2cccc(S(=O)(=O)N3CCCCC3)c2)c(=O)[nH]c1=O",
    "B-score": "inactive"
  },
  {
    "Compound": "C=C(C)COc1ccc(-c2n[nH]c(C)c2-c2ccccc2)c(O)c1",
    "B-score": "inactive"
  },
  {
    "Compound": "CSCC[C@H](NC(=O)NCc1cccs1)C(=O)O",
    "B-score": "inactive"
  },
  {
    "Compound": "O=C(NC1CC1)C1CCCN(C(=O)NC2CCCCC2)C1 (stereo unspecified)",
    "B-score": "inactive"
  },
  {
    "Compound": "Cc1cc(C(C)(C)C)n2nc(C)c(-c3ccccc3)c2n1",
    "B-score": "inactive"
  },
  {
    "Compound": "CN(CC(=O)Nc1cccc(F)c1)C(=O)C1=COCCO1",
    "B-score": "inactive"
  },
  {
    "Compound": "O=C(O)c1n[nH]nc1-c1ccccc1",
    "B-score": "inactive"
  },
  {
    "Compound": "CCN(CC)C(=O)Cn1cc(S(=O)(=O)CC(=O)NCc2ccc3c(c2)OCO3)c2ccccc21",
    "B-score": "inactive"
  },
  {
    "Compound": "CC1CN(CCCOc2ccccc2-c2ccccc2)CC(C)O1 (stereo unspecified)",
    "B-score": "inactive"
  },
  {
    "Compound": "Cc1noc(C)c1COc1ccccc1C(=O)N(C)CC(=O)Nc1cccc(F)c1",
    "B-score": "inactive"
  },
  {
    "Compound": "NS(=O)(=O)c1ccc(CCNc2nc(C(F)(F)F)nc3ccccc23)cc1",
    "B-score": "inactive"
  },
  {
    "Compound": "C[N+](C)(C)CCOP(=O)([O-])OC[C@H](O)CO",
    "B-score": "inactive"
  },
  {
    "Compound": "Cc1ccc(Cn2nnc3c(=O)[nH]c(C4CCN(S(=O)(=O)/C=C/c5ccccc5)CC4)nc32)cc1",
    "B-score": "inactive"
  },
  {
    "Compound": "COc1cc(N2CCCC2)c(OC)cc1/C=C(/C#N)c1cccc(Br)c1",
    "B-score": "inactive"
  },
  {
    "Compound": "COc1ccccc1CC(=O)Nc1ccc(F)cc1F",
    "B-score": "inactive"
  },
  {
    "Compound": "COc1cc(C(F)(F)F)nc2c(Br)c(C(C)(C)C)nn12",
    "B-score": "-6 (active)"
  },
  {
    "Compound": "COc1ccc(-c2n[nH]c(C)c2-c2ccccc2OC)c(O)c1",
    "B-score": "-6 (active)"
  },
  {
    "Compound": "Cc1ccc(NC(=O)CSc2nc(=O)n(CCN(C)C)c3c2CCCC3)c(C)c1",
    "B-score": "inactive"
  }
]
